# Test system: MS2 coat protein
# procedure_summary: apparent KD of MS2 coat protein; designed switch direction (-1 OFF switch, 1 ON switch): 1; higher = weaker reporter binding
# condition_summary: Eterna round: R95; input ligand: microRNA oligo, concentration not stated
Assign class by apparent KD of MS2 coat protein: not lower than 30 nM means fulfilled; lower than 30 nM means not fulfilled.

Asked: Form field: apparent KD of MS2 coat protein at least 30 nM? Entry: GGAGAGAGAGCGCAGGAUAUUCGAGGAGAAACAUGAGGAUCACCCAUGUGAGAGAGAGAGGAGAAGGAGAAGGGUGAGAGAGAGG [Altered State 2-14 - Jieux - Same State 2] (puzzle: Same State 2)
Given back: fulfilled

Asked: Kindly determine if apparent KD of MS2 coat protein recorded for CUAUCUACAGGUUUCAGUGCUCGUCUUAUACAUGAGGAUCACCCAUGUUAUAGCCCGGUGCUUGCGCUGGGCUGAUU [JL ViennaUCT Tearor mod 3] (puzzle: Sensor for hsa-mir-208a) is above or exactly 30 nM.
Given back: not fulfilled

Asked: Quick check: does AAGAGAGGAAGCGAGGAUAUCGUGGGAGGGACAUGAGGAUCACCCAUGUAGGAUGUUGAGAGGAACGAGAAGGCGCAGGAAAGAA [JR_SS2_Sub074] (puzzle: Same State 2) have apparent KD of MS2 coat protein greater than or equal to 30 nM?
Given back: fulfilled

Asked: Test whether the sequence UGGAUCUAGGCUUGCCUGGGUCCAUGUUGACAUGAGGAUCACCCAUGUGUUUUUUUUUUGCUUUUUGUUUGUCAACA [JL A Humble Attempt mod 3] (puzzle: Sensor for hsa-mir-208a) records apparent KD of MS2 coat protein of 30 nM or higher.
Given back: not fulfilled

Asked: Could you tell me if the measured apparent KD of MS2 coat protein of AGAAUACAUGAGGAUCACCCAUGUCAACGUAGUCGAGGAUAUGGGCAGCCGUGAGGCGUACUAGAAGGCGAAGAGA [Mat - Same State 1 - Mod of JL - D6] (puzzle: Same State 1) reaches 30 nM or more?
Given back: fulfilled

Reference source: the supplement of paper PMC9170038
